Hello, the source for this data is patent US20240287071A1, in case you need it.

# System: DLD1
# experiment_summary: CCK-8 in vitro anti-tumor proliferation assay
# Format: cell-based
# condition: Homo sapiens, DLD-1; Table 4; 72 hours; read-out: IC50 ( M) DLD1
assay_metric: IC50 (M)
Your answer is read as M, so omit the unit and give the number.

Cc1ccccc1CN1CCn2c1nc(=O)c1c2CCN(Cc2ccccc2)C1 | 5e-07

Req: Dear colleague, I am looking for the recorded IC50 of the following compound: O=c1nc2n(c3c1CN(Cc1ccccc1)CC3)CCN2Cc1ccc(F)cc1
Resp: 9e-08

Req: Given the compound O=c1nc2n(c3c1CN(Cc1ccccc1)CC3)CCN2Cc1ccc(F)c(F)c1 , what is its reported IC50?
Resp: 1.5e-07

Req: Given the entry O=c1nc2n(c3c1CN(Cc1ccccc1)CC3)CCN2Cc1ccc(F)cc1F , report its measured IC50.
Resp: 9e-08

Req: IC50 lookup needed for O=c1nc2n(c3c1CN(Cc1ccccc1)CC3)CCN2Cc1ccc(Cl)cc1 , thanks.
Resp: 1e-07
